# Test system: K562 CRISPRi cells
# methodSummary: Perturb-seq pooled growth measurement (sgRNA counts, growth phenotype γ, relative activity)
# Assay type: cell-based, human
# studyConditions: pooled growth phenotype γ of the Perturb-seq sgRNA, day 10, K562 CRISPRi cells
Is gamma_day10 at least -0.3? Then t. If not, f.

Sample answers from the record:
{"columns": ["substance", "classLabel"],
 "data": [
  ["ATP5E_ −_57607036.23-P1P2_14 (guide GGTGTCCAGGGGCACTGTGT; listed as DNA, chemistry not fully specified)", "t"],
  ["SEC61A1_ −_127771295.23-P1_00 (guide GGCACTGACGTGTCTCTCGG; listed as DNA, chemistry not fully specified)", "f"]
]}

Could you verify whether the entry POLR2H_ + _184081251.23-P1P2_08 (guide GGGGCCACGCGAGCAGCAGA; listed as DNA, chemistry not fully specified) shows gamma_day10 of no less than -0.3? f

Could you verify whether the entry CDC23_ −_137548987.23-P1P2_08 (guide GACAGCCATCGGGACCATGG; listed as DNA, chemistry not fully specified) shows gamma_day10 of no less than -0.3? f

Could you verify whether the entry RPL9_ + _39460483.23-P1P2_05 (guide GGATGTTTCGGTGCTCGTGG; listed as DNA, chemistry not fully specified) shows gamma_day10 of no less than -0.3? f

Could you verify whether the entry RPS18_ + _33239917.23-P1P2_02 (guide GCTGGGATGCCGCTGGATCA; listed as DNA, chemistry not fully specified) shows gamma_day10 of no less than -0.3? f

From: patent US20220259593A1
